# studyTarget: HLA-B*15:42
# testName: IEDB peptide-MHC binding, purified MHC/competitive/fluorescence; filed as Kd, often an IC50 or EC50 that approximates it; bounds were set here for any values at or beyond the usual limits of such assays
# measurementConditions: source organism: Hantaan virus 76-118
endpointLabel: Kd

**Q:** // query Kd value for entry RYRTAVCGL
**A:** ≥ 5 µM

---

# studyTarget: HLA-A*02:11
# testName: IEDB peptide-MHC binding, purified MHC/direct/fluorescence; filed as Kd, often an IC50 or EC50 that approximates it; bounds were set here for any values at or beyond the usual limits of such assays
# measurementConditions: source organism: Bacillus anthracis str. Sterne
pKd: −log10 of the molar value.
endpointLabel: pKd

**Q:** // query pKd value for entry KKNHWFILK
**A:** ≤ 4.70

---

# studyTarget: HLA-B*57:01
# testName: IEDB peptide-MHC binding, purified MHC/direct/fluorescence; filed as Kd, often an IC50 or EC50 that approximates it; bounds were set here for any values at or beyond the usual limits of such assays
# measurementConditions: source organism: Campylobacter jejuni RM1221
endpointLabel: pKd
Remember, pKd is on a log scale: it is -log10 of the molar concentration.

**Q:** // query pKd value for entry HSNSEYLMF
**A:** 6.87

---

# studyTarget: HLA-B*45:01
# testName: IEDB peptide-MHC binding, purified MHC/competitive/radioactivity; filed as Kd, often an IC50 or EC50 that approximates it; bounds were set here for any values at or beyond the usual limits of such assays
# measurementConditions: source organism: Mammarenavirus mopeiaense
pKd: −log10 of the molar value.
endpointLabel: pKd

**Q:** Lab note: need pKd for PELLNNQFGT on HLA-B*45:01, anyone have it?
**A:** ≤ 4.15

---

# studyTarget: HLA-B*40:02
# testName: IEDB peptide-MHC binding, purified MHC/competitive/radioactivity; filed as Kd, often an IC50 or EC50 that approximates it; bounds were set here for any values at or beyond the usual limits of such assays
# measurementConditions: source organism: Mammarenavirus brazilense
endpointLabel: Kd (µM)
Numbers only here, please. The scale is µM.

**Q:** // query Kd value for entry SDHLLSEML
**A:** 2.26

---

# studyTarget: HLA-A*29:02
# testName: IEDB peptide-MHC binding, purified MHC/direct/fluorescence; filed as Kd, often an IC50 or EC50 that approximates it; bounds were set here for any values at or beyond the usual limits of such assays
# measurementConditions: source organism: Bacillus anthracis str. Sterne
endpointLabel: Kd

**Q:** // query Kd value for entry KKNHWFILK
**A:** ≥ 20 µM

---

Below, each of the sequences is paired with its reported Kd value.
# studyTarget: HLA-B*15:01
# testName: IEDB peptide-MHC binding, purified MHC/direct/fluorescence; filed as Kd, often an IC50 or EC50 that approximates it; bounds were set here for any values at or beyond the usual limits of such assays
# measurementConditions: source organism: SARS-CoV1

[[record]]
sequencecontent = "KLFAAETLK"
endpointlabel = "Kd"
observed = "≥ 21300 nM"


Here's the next entry for you.
**Q:** // query Kd value for entry CADGTRHTY
**A:** 1260 nM

---

# studyTarget: HLA-B*44:02
# testName: IEDB peptide-MHC binding, purified MHC/competitive/radioactivity; filed as Kd, often an IC50 or EC50 that approximates it; bounds were set here for any values at or beyond the usual limits of such assays
# measurementConditions: source organism: Hepatitis C virus (isolate 1)
endpointLabel: Kd

**Q:** // query Kd value for entry ATDALMTGY
**A:** ≥ 78 µM
